# MIC annotations
# System: Escherichia coli
# test summary: Antibacterial activity against Escherichia coli DH5alpha
# Type: functional
Please state the number and follow it with the unit.

CO[C@@]1(NC(=O)Cc2cccs2)C(=O)N2C(C(=O)O)=C(COC(N)=O)CS[C@@H]21 :: 4 µg/mL

Qu. I'd like to know its MIC. The compound in question is CC1(C)S[C@@H]2[C@H](NC(=O)[C@H](N)c3ccc(O)cc3)C(=O)N2[C@H]1C(=O)O
Ans. 2 µg/mL

Qu. Please answer likewise for CO/N=C(\C(=O)N[C@@H]1C(=O)N2C(C(=O)O)=C(CSc3nc(=O)c(O)nn3C)CS[C@H]12)c1csc(N)n1
Ans. 0.12 µg/mL

Qu. Please answer likewise for CO/N=C(\C(=O)N[C@@H]1C(=O)N2C(C(=O)O)=C(COC(N)=O)CS[C@H]12)c1ccco1
Ans. 2 µg/mL

Qu. Please answer likewise for CC1(C)S[C@@H]2[C@H](NC(=O)[C@H](C(=O)O)c3ccsc3)C(=O)N2[C@H]1C(=O)O
Ans. 2 µg/mL

Qu. Please answer likewise for N[C@@H](C(=O)N[C@@H]1C(=O)N2C(C(=O)O)=C(Cl)CS[C@H]12)c1ccccc1 [CEFACLOR ANHYDROUS]
Ans. 4 µg/mL

Qu. Please answer likewise for CC(C)(O/N=C(\C(=O)N[C@@H]1C(=O)N2C(C(=O)[O-])=C(C[n+]3ccccc3)CS[C@H]12)c1csc(N)n1)C(=O)O
Ans. 0.5 µg/mL

Recorded values, source ChEMBL document CHEMBL1240399.
